So I've got a bunch of molecules here, and I need their Ki values.
- assayed-target: alpha-1D adrenoceptor (Homo sapiens)
- Construct: expressed in transfected cells; host or cells: CHO-K1
- Sequence (P25100 whole entry): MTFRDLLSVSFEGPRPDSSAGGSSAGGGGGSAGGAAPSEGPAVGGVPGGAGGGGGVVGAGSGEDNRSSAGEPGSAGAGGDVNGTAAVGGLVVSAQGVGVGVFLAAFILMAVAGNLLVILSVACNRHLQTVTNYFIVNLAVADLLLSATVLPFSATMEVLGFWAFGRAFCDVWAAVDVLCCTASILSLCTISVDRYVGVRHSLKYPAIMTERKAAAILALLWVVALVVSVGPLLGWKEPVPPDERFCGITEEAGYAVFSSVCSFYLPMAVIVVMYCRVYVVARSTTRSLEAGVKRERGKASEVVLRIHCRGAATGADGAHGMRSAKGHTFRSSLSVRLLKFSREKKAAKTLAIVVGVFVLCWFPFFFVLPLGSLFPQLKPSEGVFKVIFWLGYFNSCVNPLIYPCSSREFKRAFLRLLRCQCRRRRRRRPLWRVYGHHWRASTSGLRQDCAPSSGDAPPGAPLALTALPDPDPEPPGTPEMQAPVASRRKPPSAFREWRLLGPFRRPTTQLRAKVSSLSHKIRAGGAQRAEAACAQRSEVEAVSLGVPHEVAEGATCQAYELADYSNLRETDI
- procedure-text: [3H]prazosin binding (alpha1-adrenoceptor) assay, alpha-1D
- test-parameters: membranes of transfected CHO-KI cells, read-out: affinity towards the alpha-1D adrenoceptor (pKi) (converted)
- Protocol: Alpha1A, alpha1B, and alpha1D adrenoceptor transfected CHO-KI cells, prepared using the methods described by Chang et al., FEBS Lett. 1998, 422:279-283, were grown to confluence in T-162 tissue culture flasks in Ham's F-12 culture medium supplemented with 10% fetal bovine serum, geneticin (150 µg/mL) and streptomycin/penicillin (30 µg/mL/30 µg/mL) at 37 °C in 7% CO2. Cells were harvested by incubating with phosphate-buffered saline (PBS) containing 30 µM EDTA for 5-10 min at 37 °C. […]
Give bare numbers, in nM.

{"columns": ["molecule", "assay-endpoint", "measurement"],
 "data": [
  ["COc1cc2nc(N3CCc4c(cccc4NC4=NCCC4)C3)[nH]c(=O)c2cc1OC [Compound 810]", "Ki", 398],
  ["COc1cc2nc(N3CCc4ccc(S(=O)(=O)N5CCOCC5)cc4C3)[nH]c(=O)c2cc1OC [Compound 404]", "Ki", 275],
  ["COCCN(C)c1ncnc2c1CCN(c1nc3cc(OC)c(OC)cc3c(=O)[nH]1)C2 [Compound 205]", "Ki", 407]
]}

Below: the item to evaluate.
Request: Which Ki is reported for this molecule? COc1cc2nc(N3CCc4c(cccc4-c4cnccc4N)C3)[nH]c(=O)c2cc1OC [Compound 902]
Result: 692

The measurements presented in this section are drawn from patent EP1363899B1.
